System: Felis catus
ASSAY PROCEDURE: Effective dose for lowering blood pressure in anesthetized cat when administered intravenously
Type: functional
PROTOCOL CONDITIONS: iv
PROPERTY NAME: ED20 (mg/kg)
Report the figure in mg/kg without appending any unit label.

Field: example entries. Status: answers known.
{"MOLECULE": "C=C[C@@]1(C)CC(=O)[C@]2(O)C3(C)C(C(O)C(OC(=O)CCN4C(=O)c5ccccc5C4=O)[C@@]2(C)O1)C(C)(C)CC[C@@H]3O (some centres not stated)", "NUMERIC VALUE": 10}
{"MOLECULE": "Nc1cc(N2CCCCC2)nc(N)[n+]1[O-] [MINOXIDIL]", "NUMERIC VALUE": 0.9}

Sample C=C[C@@]1(C)CC(=O)[C@]2(O)C3(C)C(C(O)C(OC(=O)C(C)N4CCN(C)CC4)[C@@]2(C)O1)C(C)(C)CC[C@@H]3O.Cl (some centres not stated) ; ED20 observed: 10

Sample C=C[C@@]1(C)CC(=O)[C@]2(O)C3(C)C(C(OC(=O)CN4CCCCCC4)C(O)[C@@]2(C)O1)C(C)(C)CC[C@@H]3O.Cl (some centres not stated) ; ED20 observed: 1

Sample C=C[C@@]1(C)CC(=O)[C@]2(O)C3(C)C(C(O)C(OC(=O)Cn4cnc5ccccc54)[C@@]2(C)O1)C(C)(C)CC[C@@H]3O (some centres not stated) ; ED20 observed: 10

Sample C=C[C@@]1(C)CC(=O)[C@]2(O)C3(C)C(C(O)C(OC(=O)CCCCCCCCCCCN4CCOCC4)[C@@]2(C)O1)C(C)(C)CC[C@@H]3O.Cl (some centres not stated) ; ED20 observed: 1.6

Sample C=C[C@@]1(C)CC(=O)[C@]2(O)C3(C)C(C(O)C(OC(=O)CCCN4CCCCC4)[C@@]2(C)O1)C(C)(C)CC[C@@H]3O.Cl (some centres not stated) ; ED20 observed: 0.3
